Values from ChEMBL document CHEMBL4616706

The following compounds each carry a recorded pIC50 for UniProtKB Q12809.
Sequence (Q12809 whole entry): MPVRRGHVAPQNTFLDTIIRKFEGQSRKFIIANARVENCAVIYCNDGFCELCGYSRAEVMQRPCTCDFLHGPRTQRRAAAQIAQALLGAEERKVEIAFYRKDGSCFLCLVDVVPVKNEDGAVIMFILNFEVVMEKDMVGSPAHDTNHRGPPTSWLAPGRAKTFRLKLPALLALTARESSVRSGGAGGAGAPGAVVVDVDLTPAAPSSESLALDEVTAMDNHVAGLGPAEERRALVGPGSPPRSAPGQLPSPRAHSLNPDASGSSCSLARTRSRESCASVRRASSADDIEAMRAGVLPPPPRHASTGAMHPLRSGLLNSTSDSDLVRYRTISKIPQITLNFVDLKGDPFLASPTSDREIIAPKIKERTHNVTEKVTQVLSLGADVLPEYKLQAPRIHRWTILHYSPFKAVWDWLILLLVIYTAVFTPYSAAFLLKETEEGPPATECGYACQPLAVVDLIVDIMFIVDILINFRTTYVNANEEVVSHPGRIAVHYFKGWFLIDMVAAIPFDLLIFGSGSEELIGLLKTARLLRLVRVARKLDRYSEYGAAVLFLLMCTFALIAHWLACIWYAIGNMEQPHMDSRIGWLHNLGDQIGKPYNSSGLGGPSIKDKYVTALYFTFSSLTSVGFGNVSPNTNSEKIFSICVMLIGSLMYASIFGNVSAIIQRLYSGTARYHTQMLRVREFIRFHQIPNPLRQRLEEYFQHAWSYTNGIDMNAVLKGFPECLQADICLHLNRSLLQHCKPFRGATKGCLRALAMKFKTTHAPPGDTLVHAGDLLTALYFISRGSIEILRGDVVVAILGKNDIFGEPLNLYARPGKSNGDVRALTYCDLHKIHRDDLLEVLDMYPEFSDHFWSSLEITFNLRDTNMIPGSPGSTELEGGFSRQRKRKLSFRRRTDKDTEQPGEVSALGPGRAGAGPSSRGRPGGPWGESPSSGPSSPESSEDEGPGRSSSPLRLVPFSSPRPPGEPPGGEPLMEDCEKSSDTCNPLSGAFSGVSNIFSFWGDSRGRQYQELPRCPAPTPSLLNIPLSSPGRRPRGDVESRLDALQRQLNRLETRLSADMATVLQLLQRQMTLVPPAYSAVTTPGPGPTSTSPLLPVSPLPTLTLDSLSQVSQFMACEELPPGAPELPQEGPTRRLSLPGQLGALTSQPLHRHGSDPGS
The value called pIC50 is obtained by taking minus log10 of the concentration in mol/L.

Data request: What value of pIC50 has been reported for the following compound? Cc1cc(N2C[C@H]3CC[C@@H](C2)[C@@H]3Nc2nc3n(n2)CCCC[C@H]3c2ccc(F)c(F)c2F)ncn1
Data returned: 5.85

Read the next record carefully.
Data request: Sample COc1cc(N2C[C@H]3CC[C@@H](C2)[C@@H]3Nc2nc3n(n2)CCCCC3c2ccc(F)c(F)c2F)ncn1 (mixture of isomers) — what was its pIC50?
Data returned: 6.26

----------
Experiment: Terminal half life in Wistar rat at 1 mg/kg, iv administered as single dose
Format: ADME, organism-based
Settings: in vivo, read-out: beta t1/2 (converted)
readout label: half-life (min)
Please respond with the number in min and leave the unit unwritten.

Data request: Quick check: half-life of Cc1cc(N2C[C@H]3CC[C@@H](C2)[C@@H]3Nc2nc3n(n2)CCCN3c2cc(F)cc(F)c2)ncn1 ?
Data returned: 276
